Experiment: Permeability in RRCK cells measured up to 1.5 hrs
Format: ADME, cell-based, Canis lupus familiaris, MDCKII-LE
Conditions: dog, MDCK; read-out: permeability
The label is Met for Papp at 1.5 h below 90 nm/s and Not met for Papp at 1.5 h equal to or exceeding 90 nm/s.

SMILES CODE: Cc1cccnc1N(C(=O)N1CCC(c2cnn3cccnc23)CC1)[C@@H]1CCCNC1
LABEL CLASS: Met
//
SMILES CODE: Cc1cccnc1N(C(=O)N1CCC(c2ccccc2)CC1)[C@@H]1CCCNC1
LABEL CLASS: Met
//
SMILES CODE: Cc1cccnc1N(C(=O)N1CCC(c2ccccc2F)CC1)[C@@H]1CCCNC1
LABEL CLASS: Not met
//
SMILES CODE: O=C(N1CCC(c2cnn3cccnc23)CC1)N(c1ncccc1Cl)[C@@H]1CCCNC1
LABEL CLASS: Met
//
SMILES CODE: O=C(N1CCN(c2ccccc2)CC1)N(c1nccc2ccccc12)[C@@H]1CCCNC1
LABEL CLASS: Met
//
SMILES CODE: O=C(N1CCC(c2ccccc2)CC1)N(c1ncccc1Cl)[C@@H]1CCCNC1
LABEL CLASS: Not met

Hello, is Papp at 1.5 h of the following molecule strictly smaller than 90 nm/s? `Cc1nccnc1N(C(=O)N1CCC(c2ccccc2)CC1)[C@@H]1CCCNC1`
Not met

Source of measurements: ChEMBL document CHEMBL4325911
